System: Oryza sativa
Test: Greenhouse post-emergence herbicidal activity on crop ORYSA (rice)
Format: in vivo
Conditions: ORYSA (rice, crop), 0.063 kg/ha, scale 0 to 100
Kind request: treat 20 as inclusive, so Herbicidal activity at 20 or higher is true (1), anything lower is false (0).

Example results:
• CN(c1ccc(Cl)c(C2=C(O)c3ncccc3C(C)(C)S2(=O)=O)c1Cl)S(C)(=O)=O = false (0)
• CCN(c1c(Cl)ccc(C2=C(O)c3ncccc3CS2(=O)=O)c1Cl)S(C)(=O)=O = true (1)
• Cc1c(C2=C(O)c3ncccc3C(C)(C)S2(=O)=O)ccc(Cl)c1N(C)S(C)(=O)=O = true (1)
• CN(C)S(=O)(=O)Oc1c(Cl)ccc(C2=C(O)c3ncccc3CS2(=O)=O)c1Cl = true (1)
• CC1(C)c2cccnc2C(O)=C(c2c(Cl)ccc(NS(C)(=O)=O)c2Cl)S1(=O)=O = true (1)

Record `CS(=O)(=O)N(c1c(Cl)ccc(C2=C(O)c3ncccc3CS2(=O)=O)c1Cl)C1CC1` ; criterion: Herbicidal activity no lower than 20. Met?
false (0)

Please do the same for `CC(C)N(c1c(Cl)ccc(C2=C(O)c3ncccc3CS2(=O)=O)c1Cl)S(C)(=O)=O` as well.
false (0)

Please do the same for `CN(C)S(=O)(=O)Oc1c(Cl)ccc(C2=C(O)c3ncccc3C(C)(C)S2(=O)=O)c1Cl` as well.
false (0)

Please do the same for `CN(c1cccc(C2=C(OC(=O)C(C)(C)C)c3ncccc3C(C)(C)S2(=O)=O)c1Cl)S(C)(=O)=O` as well.
false (0)

---

Let's look at some molecules and their measured Herbicidal activity.
Test system: Oryza sativa
Test: Greenhouse post-emergence herbicidal activity on crop ORYSA (rice)
Format: in vivo
Settings: ORYSA (rice, crop), 0.25 kg/ha, scale 0 to 100
When you answer, write just the number.

Solved cases below.
• CS(=O)(=O)Nc1c(Cl)ccc(C2=C(O)c3ncccc3CS2(=O)=O)c1Cl = 0
• CN(c1ccc(Cl)c(C2=C(O)c3ncccc3C(C)(C)S2(=O)=O)c1Cl)S(C)(=O)=O = 15
• CC1(C)c2cccnc2C(O)=C(c2ccc(Cl)c(N(C3CC3)S(C)(=O)=O)c2Cl)S1(=O)=O = 35

Turning now to a further record.
So what does the record say about Herbicidal activity for `CN(c1cccc(C2=C(OC(=O)C(C)(C)C)c3ncccc3C(C)(C)S2(=O)=O)c1Cl)S(C)(=O)=O` ?
0

---

System: Zea mays
Assay: Greenhouse post-emergence herbicidal activity on crop ZEAMX (corn, maize)
Format: in vivo
Parameters: key: 0 = no damage/normal growth, 100 = no emergence or complete destruction
Settings: ZEAMX (corn, crop), 0.063 kg/ha, scale 0 to 100
Let's look at some compounds and their measured Herbicidal activity.

Solved cases below.
* CCN(c1c(Cl)ccc(C2=C(O)c3ncccc3C(C)(C)S2(=O)=O)c1Cl)S(C)(=O)=O | 10
* CN(c1ccc(Cl)c(C2=C(O)c3ncccc3C(C)(C)S2(=O)=O)c1Cl)S(C)(=O)=O | 0

So what does the record say about Herbicidal activity for `CCS(=O)(=O)N(C)c1c(Cl)ccc(C2=C(O)c3ncccc3CS2(=O)=O)c1Cl` ?
25

Please do the same for `CS(=O)(=O)Nc1ccc(Cl)c(C2=C(O)c3ncccc3CS2(=O)=O)c1Cl` as well.
0

Please do the same for `CN(C)S(=O)(=O)Oc1c(Cl)ccc(C2=C(O)c3ncccc3CS2(=O)=O)c1Cl` as well.
0

Please do the same for `CS(=O)(=O)N(c1c(Cl)ccc(C2=C(O)c3ncccc3CS2(=O)=O)c1Cl)C1CC1` as well.
0

Please do the same for `CN(c1c(Cl)ccc(C2=C(O)c3ncccc3C(C)(C)S2(=O)=O)c1Cl)S(=O)(=O)C1CC1` as well.
30

Please do the same for `CN(c1ccc(Cl)c(C2=C(O)c3ncccc3CS2(=O)=O)c1Cl)S(C)(=O)=O` as well.
20

Please do the same for `Cc1c(C2=C(O)c3ncccc3C(C)(C)S2(=O)=O)cccc1N(C)S(C)(=O)=O` as well.
20

Please do the same for `CCN(c1c(Cl)ccc(C2=C(O)c3ncccc3CS2(=O)=O)c1Cl)S(C)(=O)=O` as well.
0

Please do the same for `CN(c1c(Cl)ccc(C2=C(O)c3ncccc3C(C)(C)S2(=O)=O)c1Cl)S(C)(=O)=O` as well.
5
